Kindly state inhibition at 10 µM for each of the entries shown.
System: store-operated calcium entry in RBL-2H3 cells
Experiment: Fluorescence (FLUO-4/FLIPR384) store-operated calcium entry screening assay
Format: cell-based, rat
Conditions: Rattus norvegicus, RBL-2H3; 10 μM; cell line not stated
Method: Fluorescence-based assays were used for screening the compounds described herein, such as compounds of Formula (I) and Formula (II), which modulate intracellular calcium. RBL-2H3 cells plated in 384-well plates were loaded for 45 min with FLUO-4-AM (2 μM final concentration) in HBSS. […] Fifteen minutes after addition of Tg, store-operated calcium entry was initiated by adding external Ca^2+ to a final concentration of 1.8 mM and the cells monitored for a further 10-15 minutes. […]

Observe how each entry below is paired with its result.
compound	inhibition at 10 µM
O=C(Nc1scc(-c2ccc(Br)cc2)c1C(=O)O)c1ccc(F)cc1 [Compound 1]	> 70%
Cc1ccc(-c2csc(NC(=O)c3ccc(Cl)cc3)c2C(=O)O)cc1C [Compound 38]	< 70%
O=C(Nc1scc(-c2cc(Cl)cc(Cl)c2)c1C(=O)O)c1ccc(Br)cc1 [Compound 19]	> 70%
O=C(Nc1scc(-c2ccc(Cl)cc2)c1C(=O)O)c1ccc(Br)cc1 [Compound 17]	> 70%
O=C(Nc1scc(-c2ccc(C(F)(F)F)cc2)c1C(=O)O)c1ccc(F)cc1 [Compound 4]	> 70%

The following compounds each have a reported value; give each one's inhibition at 10 µM.
1. O=C(Nc1scc(-c2ccc(Cl)c(Cl)c2)c1C(=O)O)c1ccc(F)cc1 [Compound 3]
2. O=C(Nc1scc(-c2ccc(Cl)cc2Cl)c1C(=O)O)c1cccc(F)c1 [Compound 26]
3. O=C(Nc1scc(-c2ccc(Cl)c(Cl)c2)c1C(=O)O)c1ccc(Cl)cc1 [Compound 37]
4. Cc1ccc(-c2csc(NC(=O)c3ccc(Br)cc3)c2C(=O)O)cc1C [Compound 21]

Output line:
1: > 70%; 2: > 70%; 3: < 70%; 4: > 70%

* * *

Tested on: HEK-Zeo control cells
Conditions: read-out: IC50 for inhibition of calcium entry, HEK-Zeo control cells; thapsigargin-mediated store depletion, readdition of external calcium
measurementKind: IC50 (µM)
Give bare numbers, in µM.

Input line: Which IC50 value is on record for NCCOB(c1ccccc1)c1ccccc1 [Compound 2-APB, 2-aminoethoxydiphenyl borate] ?
Output line: 11.8

* * *

System: store-operated calcium entry in RBL-2H3 cells
Test: Fluorescence (FLUO-4/FLIPR384) store-operated calcium entry screening assay
Type: cell-based, rat
Settings: Rattus norvegicus, RBL-2H3; 10 μM; cell line not stated
Kindly state inhibition at 10 µM for each of the entries shown.

Observe how each entry below is paired with its result.
compound	inhibition at 10 µM
O=C(Nc1scc(-c2ccc(Cl)cc2Cl)c1C(=O)O)c1ccc(Cl)cc1 [Compound 35]	> 70%
O=C(Nc1scc(-c2ccc(Br)cc2)c1C(=O)O)c1ccc(Br)cc1 [Compound 18]	> 70%

Please turn your attention to the following entry.
Input line: Recorded inhibition at 10 µM for O=C(Nc1scc(-c2cccc(Cl)c2)c1C(=O)O)c1ccc(Br)cc1 [Compound 20] with store-operated calcium entry in RBL-2H3 cells, please?
Output line: < 70%

* * *

Test system: RBL-2H3 cells
Assay: Degranulation (β-hexosaminidase release) assay
Format: cell-based
Details: Rattus norvegicus, RBL-2H3; 2 hour TG/TPA induction in HBSS, 10 minute pretreatment; FIG. 4; read-out: apparent IC50 for inhibition of degranulation, absence of serum
measurementKind: IC50

Input line: Which IC50 value is on record for O=C(Nc1scc(-c2ccc(Br)cc2)c1C(=O)O)c1ccc(F)cc1 [Compound 1] ?
Output line: < 300 nM
